reportedEndpoint: melting point

Reference set (5 entries):
# compound, measurement
records = [
    ("Cn1c(-c2ccccc2F)c2ccsc2nc1=O", "191 to 192 °C"),
    ("COc1ccc(Cn2nc(CO)c3cc(OC)c(OC)cc32)cc1OC", "187 °C"),
    ("Oc1ccc(C2(c3ccc(O)c(Cl)c3)CCCCCCCCCCC2)cc1Cl", "167 to 169 °C"),
    ("N#CC1(N)CCC2Cc3ccccc3CC2C1 (stereo unspecified)", "128 °C"),
    ("COc1ccc2ccc3c(c2c1)CC(NC(C)=O)CO3 (stereo unspecified)", "186 °C"),
]

Ask: // melting point lookup, key: "CCCCCC(=O)C=Cc1ccc(CCCCCCCCCC(=O)OC)s1"
Reply: 45 to 47 °C

Recorded values, source a melting point compilation (Tetko et al.; mined from patent text by program, amines drawn as free bases though some values may be those of a salt).
